# growth inhibition per entry
Test: NCI Yeast Anticancer Drug Screen. Data for the mlh1 rad18 strain (AID 175)
Conditions: S. cerevisiae mlh1 rad18 strain growth inhibition; at 50.0 µM; stronger effect = higher value
Procedure: Growth inhibition of yeast strains with defined genetic alterations is measured as a screen for potential anti-cancer activity. Selected strains with alterations in DNA damage repair or cell cycle control were exposed to compounds and growth inhibition was measured relative to vehicle treated controls. The strain used in this assay is mlh1 rad18
The panel holds about 79,000 compounds, 15% with a hit somewhere; the sample as a whole holds those more often.
observation_type: growth inhibition (%)

[
  {
    "molecule_smiles": "Cc1[nH]c(=S)[nH]c(=O)c1CCC(C)C",
    "test_result": 6.5
  },
  {
    "molecule_smiles": "O=C(Nc1cccc(Cl)c1)Sc1c(Cl)c(Cl)c(Cl)c(Cl)c1Cl",
    "test_result": 34.8
  },
  {
    "molecule_smiles": "O=C(CN1CCCc2ccccc21)c1ccccc1",
    "test_result": 10.4
  },
  {
    "molecule_smiles": "Cc1ccc(OCC(=O)O)cc1C",
    "test_result": -11.2
  }
]

###

Measured growth inhibition by item
assay: NCI Yeast Anticancer Drug Screen. Data for the mec2-1 strain (AID 157); conditions: S. cerevisiae mec2-1 strain, at 50.0 µM, stronger effect = higher value
The panel holds about 79,000 compounds, 15% with a hit somewhere; the sample as a whole holds those more often.
observation_type: growth inhibition (%)

[
  {
    "compound": "CCOC(=O)c1sc2nc(-c3ccccc3)nn2c1CBr",
    "test_result": 3.95
  },
  {
    "compound": "CCCCc1c2c(nc3c1CCCC3=O)C(=O)CCC2",
    "test_result": -1.95
  },
  {
    "compound": "C1=COC(C2NCCCN2)CC1 (stereo not given)",
    "test_result": 8.25
  },
  {
    "compound": "CC(=O)c1cccc(C(=O)O)c1",
    "test_result": 1.95
  },
  {
    "compound": "C(=C/c1ccccc1)/CNCCNC/C=C/c1ccccc1",
    "test_result": 22.6
  },
  {
    "compound": "CCOC(=O)CC(=O)CC",
    "test_result": -16.6
  },
  {
    "compound": "COc1ccc(C(=O)OCc2ccccc2CN2CCOCC2)cc1",
    "test_result": 12.5
  },
  {
    "compound": "COc1ccc(/C=C/C(=O)CC(=O)/C=C/c2ccc(OC)cc2)cc1",
    "test_result": 35
  },
  {
    "compound": "CC1CCC(C(C)C)C(NC(=O)c2cccnc2)C1 (stereo not given)",
    "test_result": -7.45
  },
  {
    "compound": "CCCCN(CCCC)CC(O)c1cc2ccc(Cl)cc2nc1-c1ccc(Cl)cc1 (stereo not given)",
    "test_result": 41.7
  },
  {
    "compound": "OC1C(O)C2OC(c3ccccc3)OC2C2OC(c3ccccc3)OC12 (stereo not given)",
    "test_result": -4.85
  },
  {
    "compound": "Nc1nc(SCC(=O)c2ccc(Br)cc2)c2[nH]cnc2n1",
    "test_result": 3.35
  },
  {
    "compound": "CN1CCN(CC2C(=O)C3CCC2C3)CC1 (stereo not given)",
    "test_result": -20.4
  },
  {
    "compound": "COC(=O)Nc1cn2nc(C)sc2n1",
    "test_result": 11.4
  },
  {
    "compound": "CCCC(=O)OC1=CC(=O)c2ccccc2C1=O",
    "test_result": 16.6
  },
  {
    "compound": "CN1C(=S)C2=C(c3ccccc3)N(C)C(=S)C2=C1c1ccccc1",
    "test_result": -6.15
  },
  {
    "compound": "CCc1cccc(C)c1N1C(=O)C(=O)C(c2nc3ccccc3o2)C(=O)C1=O",
    "test_result": 17.9
  },
  {
    "compound": "c1ccc(-c2cnc(-c3ccccc3)cn2)cc1",
    "test_result": 10.6
  },
  {
    "compound": "CCCNC(=O)c1ccc(Cl)cc1Cl",
    "test_result": 7.85
  },
  {
    "compound": "CN1C(=O)N(c2nc3ccccc3[nH]2)C(C)(C)C1=O",
    "test_result": 1.9
  },
  {
    "compound": "NNC(=O)/C(=C/c1cccc([N+](=O)[O-])c1)NC(=O)c1ccccc1",
    "test_result": -25.4
  },
  {
    "compound": "Cc1nc2c(=O)[nH]c(N)nc2[nH]c1=O",
    "test_result": -4
  },
  {
    "compound": "CCNC(=O)COc1ccc(Br)cc1Br",
    "test_result": -5.2
  },
  {
    "compound": "O=C1c2ccccc2C2(O)NC(=S)N(c3ccccc3)C12O (stereo not given)",
    "test_result": -20.8
  },
  {
    "compound": "O=C(Nc1ccccc1)C1(Cl)CCCCC1",
    "test_result": -7.35
  },
  {
    "compound": "CC(C)=CC1C(CBr)C1(C)C (stereo not given)",
    "test_result": -15.2
  },
  {
    "compound": "COc1ccccc1NC(=S)N/C=C(\\C#N)c1nc2ccccc2s1",
    "test_result": 5.95
  },
  {
    "compound": "CN(C)c1ccc(/C=C\\C(O)c2ccccc2)cc1 (stereo not given)",
    "test_result": 11.3
  },
  {
    "compound": "CN(Cc1cccc(Cl)c1)C(=O)Nc1ccccc1Cl",
    "test_result": 48.8
  },
  {
    "compound": "CSC1(C)CC2C(CC1N1CCOCC1)C2(C)C (stereo not given)",
    "test_result": -33.9
  },
  {
    "compound": "COc1ccc2nccc(NCCCN3CCN(CCCNc4ccnc5ccc(OC)cc45)CC3)c2c1",
    "test_result": 1
  },
  {
    "compound": "CC(Oc1ccccc1)C(O)(c1ccc(N(C)C)cc1)c1ccc(N(C)C)cc1 (stereo not given)",
    "test_result": -5.9
  },
  {
    "compound": "CCCCCCCC[C@]1(O)C[C@H]2[C@@H]3CCc4cc(OC)ccc4[C@H]3CC[C@]2(C)[C@H]1O",
    "test_result": -10.7
  },
  {
    "compound": "O=C1OC(c2ccc([N+](=O)[O-])cc2)=N/C1=C\\c1cc(Br)ccc1O",
    "test_result": 28.5
  },
  {
    "compound": "NC(=O)N/N=C\\CC(O)(C(F)(F)Cl)C(F)(F)Cl",
    "test_result": -29.2
  },
  {
    "compound": "S=c1sc2c(Cl)nc(Cl)nc2n1-c1ccccc1",
    "test_result": -4.95
  },
  {
    "compound": "Cc1cc(C2(c3cc(C)c(O)c4ncccc34)OC(=O)c3ccccc32)c2cccnc2c1O",
    "test_result": 85.5
  },
  {
    "compound": "COC1(OC)CCC(OC)(OC)C(OC)(OC)C1(OC)OC",
    "test_result": 8.1
  },
  {
    "compound": "NC(=O)c1n[nH]c(C2OC(CO)C(O)C2O)n1 (stereo not given)",
    "test_result": -6.8
  },
  {
    "compound": "C=CCC1(C(=O)OC)CCC/C(=N\\O)C1 (stereo not given)",
    "test_result": -17.8
  },
  {
    "compound": "COc1ccc(NC(=O)/C(Cc2nc3ccccc3[nH]c2=O)=N\\O)c(OC)c1",
    "test_result": -9.4
  },
  {
    "compound": "CCOc1cc2c(cc1O)CC[C@@H]1[C@@H]2CC[C@]2(C)C(OS(=O)OC3CC[C@@H]4[C@H]5CCc6cc(O)c(OCC)cc6[C@@H]5CC[C@@]34C)CC[C@@H]12 (stereo not given in full)",
    "test_result": 0.25
  },
  {
    "compound": "O=C(O)CNC1CCCC1",
    "test_result": 3.65
  },
  {
    "compound": "Cc1cc([N+](=O)[O-])ccc1NC(=O)OC(C)C",
    "test_result": -30.2
  },
  {
    "compound": "O=C1C=CC2(CC=CCC2)CC1 (stereo not given)",
    "test_result": -8.4
  }
]

Where do the numbers come from? From PubChem BioAssay (NCI).
